- Test system: α-glucosidase
- assay-protocol: In vitro α-glucosidase inhibition assay (pNPG substrate)
- Assay type: biochemical, Saccharomyces Cerevisiae
- conditions-used: 125 µg/mL
Classify as follows. Reported % Inhibition greater than or equal to 80%: Fulfilled. Reported % Inhibition below: Not fulfilled.

INSERT INTO measurements (compound, group_label) VALUES
  ('Oc1ccc(N=Nc2cccnc2Cl)c2ccccc12', 'Not fulfilled');

In: Item Oc1ccc(N=Nc2cccnc2Cl)c(O)c1 with % Inhibition of 80% or above?
Out: Not fulfilled

In: Threshold query (% Inhibition >= 80%) on C[C@H]1O[C@H](O[C@H]2[C@H](O)[C@@H](O)[C@@H](O[C@H]3[C@H](O)[C@@H](O)C(O)O[C@@H]3CO)O[C@@H]2CO)[C@H](O)[C@@H](O)[C@@H]1N[C@H]1C=C(CO)[C@@H](O)[C@H](O)[C@H]1O (stereo partly drawn) [Acarbose, reference compound]
Out: Fulfilled

In: Could you verify whether the entry O=[N+]([O-])c1ccc(/N=N/c2ccc(O)c3ccccc23)cc1 shows % Inhibition of no less than 80%?
Out: Not fulfilled

In: # check: % Inhibition of O=[N+]([O-])c1ccc(/N=N/c2ccc(O)cc2O)cc1 is greater than or equal to 80%
Out: Fulfilled

In: Is % Inhibition at least 80%? Consider O=[N+]([O-])c1ccc(/N=N/c2c(O)ccc3ccccc23)cc1
Out: Not fulfilled

Provenance of the data: paper PMC8274517
